Reference for the values: ChEMBL document CHEMBL1629525

biological target: Metabotropic glutamate receptor 2 (Homo sapiens, UniProt Q14416); experiment: Antagonist activity at human mGluR2 receptor expressed in CHO cells assessed as inhibition of GIRK current
Sequence (Q14416 whole entry): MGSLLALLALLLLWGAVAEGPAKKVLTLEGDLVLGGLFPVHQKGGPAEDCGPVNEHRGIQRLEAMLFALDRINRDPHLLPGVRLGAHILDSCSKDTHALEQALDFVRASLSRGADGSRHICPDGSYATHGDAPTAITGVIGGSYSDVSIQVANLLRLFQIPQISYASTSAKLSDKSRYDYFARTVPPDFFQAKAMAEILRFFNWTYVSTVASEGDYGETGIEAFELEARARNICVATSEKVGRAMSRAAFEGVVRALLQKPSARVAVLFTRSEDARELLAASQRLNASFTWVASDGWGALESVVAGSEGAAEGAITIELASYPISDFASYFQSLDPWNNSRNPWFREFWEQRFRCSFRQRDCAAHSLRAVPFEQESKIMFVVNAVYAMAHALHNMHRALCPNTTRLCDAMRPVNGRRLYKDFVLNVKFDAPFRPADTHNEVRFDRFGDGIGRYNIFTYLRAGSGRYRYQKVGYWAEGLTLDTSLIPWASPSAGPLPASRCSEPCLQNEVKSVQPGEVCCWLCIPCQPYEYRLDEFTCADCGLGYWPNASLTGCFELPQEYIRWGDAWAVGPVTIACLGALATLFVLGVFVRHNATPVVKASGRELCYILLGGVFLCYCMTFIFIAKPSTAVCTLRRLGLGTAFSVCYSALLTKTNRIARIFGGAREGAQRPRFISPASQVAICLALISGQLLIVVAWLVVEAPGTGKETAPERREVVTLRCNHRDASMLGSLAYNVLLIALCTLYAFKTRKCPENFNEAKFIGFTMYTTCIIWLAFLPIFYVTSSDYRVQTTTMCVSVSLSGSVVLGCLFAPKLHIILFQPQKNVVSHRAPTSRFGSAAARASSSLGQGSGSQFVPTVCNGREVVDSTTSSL
pIC50: −log10 of the molar value.

{"smiles-text": "O=C1CC(c2cccc(-c3ccncc3)c2)=Nc2ccc(C(F)(F)F)cc2N1", "pIC50": 7.28}
{"smiles-text": "CCOc1cc2c(cc1C(F)(F)F)NC(=O)CC(c1cccc(-c3ccncc3)c1)=N2", "pIC50": 7.42}
{"smiles-text": "CCOc1cc2c(cc1C(F)(F)F)NC(=O)CC(c1cccc(-c3ccnc(C)c3)c1)=N2", "pIC50": 7.82}
{"smiles-text": "O=C1CC(c2cccc(-c3ccncc3)c2)=Nc2ccc(Cl)cc2N1", "pIC50": 8.00}
{"smiles-text": "Cc1cc(-c2cccc(C3=Nc4cc(Cl)c(Cl)cc4NC(=O)C3)c2)ccn1", "pIC50": 8.15}
{"smiles-text": "Cc1cc(-c2cccc(C3=Nc4ccc(C(F)(F)F)cc4NC(=O)C3)c2)ccn1", "pIC50": 7.60}
{"smiles-text": "Cc1cc(-c2cccc(C3=Nc4cc(C)c(C(F)(F)F)cc4NC(=O)C3)c2)ccn1", "pIC50": 7.39}
{"smiles-text": "Cc1cc(-c2cccc(C3=Nc4cc(C)c(C(F)(F)F)cc4NC(=O)C3)c2)cc(C)n1", "pIC50": 7.85}
